Experiment: yeast display, Sf9 membrane polyspecificity reagent, FACS + sequencing; frameworks hold sequencing errors
reported-property: polyreactivity (PSR sort gate)

record_sequence=QVQLVESGGGLVQAGGSLRLSCAASGGIFYLYVMGWYRQAPGKERELVAAITSRGGRTYYADSVKGRFTISRDNAKNTVYLQMNSLKPEDTAVYYCNASQSDIFDYDYWGQGTQVTVSS reported_property="polyreactivity (PSR sort gate)" result="low polyreactivity"
record_sequence=QVQLVESRRGLVQAGGSLRLSCAGSGRIVSDYAMGWYRQAPGKERELVATITSGDSTNYADSVKGRFTISRDNAKNTVYLQMNSQKPEDTAVYYCNADRFADYDYWGQGTQVTVSS reported_property="polyreactivity (PSR sort gate)" result="low polyreactivity"
record_sequence=QVQLVESGGGLVQAGGSLRLSCAAYGFTFYPYAMGWYRQAPGKEREVVAASNSGGSTYYADSVKGRFTISRDNAKNTVYLQMNSLKPEDTAVYYCSAYGKRGAVAFYYWGQGTQVTVSS reported_property="polyreactivity (PSR sort gate)" result="high polyreactivity"
record_sequence=QVQLVESGGGLVQAGGSLRLSCAASGRIFWDNAMGWYRQAPGKERELVAAISDSVVITYYADSVKGRFTISRDTAKNTVYLQMNSLKPEDTAVYYCGADKRGTVYLSSFWMDYWGQGTQVTVSS reported_property="polyreactivity (PSR sort gate)" result="low polyreactivity"
record_sequence=QVQLVESGGGLVQAGGSLRLSCAASGFIFTGYAMGWYRQAPGKERELVAAITKSGGSTYYADSVKGRFTISRDNAKNTVYLQMNSLKPEDTAVYYFNTYLWRWSKGGYLGQGTQVTVSS reported_property="polyreactivity (PSR sort gate)" result="high polyreactivity"

Measured polyreactivity (PSR sort gate) of QVQLVESGGGLVQAGGSLRLSCAASGSIFGPYVKGWYSQAPGKEREFVAAIRGSGGSTYYADSVKGRFTISRDNAKKTVYLQMNSLKPEDTAVYYCNARLKYTLYYYWGQGTQVTVSS : high polyreactivity

# polyreactivity (PSR sort gate) of QVQLVESGGGLVQAGGSLRLSCAASGRTFNPYAMGWYRQAPGKERELVAAIRWRGTRTYYADSVKGRFTISRDNAKNTVYLQMNSLKPEDTAVYYCNALLGYYRWRRPVDYSYGSWGQGTQVTVSS = high polyreactivity

Lab book: polyreactivity (PSR sort gate) of QVQLVESGGGLVQAGGSLRLSCAASGITFARYAMAWYRPAPGKERELVAAISKRGGRTYYADSVKGRFTISRDNAKNTFYLQMNSLKPEDTAVYYCATDYYVSTDYNYWGQGTQVTLSS noted as high polyreactivity

Lab note: measured polyreactivity (PSR sort gate) of QVQLVESGGGLVQAGGILRLSCGASGIIFDGYAMGWSRQAPGKERELVAAIDGTGDSTYYADSVKGRFTISRDNAKNTVYLQMNSLKPEDTAVYYCGAEYDYRWWYGYDYWGQGTQVTVSW was high polyreactivity

Data point: QVQLVESGGGLVQAGGSLRLSCAASGRTYPYYAMGWYRQAPGKEREVVAAITYRGGSTSYADSVKGRFTISRDNAKNTVDLQMNSLKPEDTAVYYCAARTWNRRSPYDYWGQGTQVTVSS ; polyreactivity (PSR sort gate) = high polyreactivity

Form: sequence = QVQLVESGGGLVQAGGSLRLSCAASGSTFSKNAMGWNRQAPGKERELFAAIRSRGGSTYYADSVKGRFTISRDNAKNTVYLQMNSLKPEDTAVYYCNKVRAYECDYWGQGTKVTVSS ; polyreactivity (PSR sort gate) = high polyreactivity

Source of measurements: the nanobody polyreactivity screen of Harvey et al. (2022)
